Recorded values, source patent US20250312352A1.

# System Under Test: GLP-1R (Homo sapiens, UniProt P43220)
# Sequence (P43220 24-463): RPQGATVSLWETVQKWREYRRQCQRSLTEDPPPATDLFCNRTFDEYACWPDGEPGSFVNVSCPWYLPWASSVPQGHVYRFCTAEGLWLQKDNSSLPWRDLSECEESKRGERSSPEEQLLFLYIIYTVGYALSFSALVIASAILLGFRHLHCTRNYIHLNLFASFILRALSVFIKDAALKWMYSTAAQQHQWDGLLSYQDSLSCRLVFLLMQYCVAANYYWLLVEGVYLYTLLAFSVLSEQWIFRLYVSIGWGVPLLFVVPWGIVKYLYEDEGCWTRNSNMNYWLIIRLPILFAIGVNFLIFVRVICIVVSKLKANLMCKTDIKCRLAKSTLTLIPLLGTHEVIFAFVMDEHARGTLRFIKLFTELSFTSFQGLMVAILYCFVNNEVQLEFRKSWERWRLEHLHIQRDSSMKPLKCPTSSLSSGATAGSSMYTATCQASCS
# Protocol Text: GLP-1R activation cAMP assay (Assay 1 or Assay 2)
# Cond: cAMP increase in CHO cells stably expressing GLP-1R; compounds run on one of the two cAMP assays
pEC50: −log10 of the molar value.
# maps each entry to its pEC50
Readout Name: pEC50

INSERT INTO measurements (line_notation, recorded_value) VALUES
  ('Cn1cc(-c2cc(F)c(COc3cccc(-c4cc(F)c(Cc5nc6ccc(C(=O)O)cc6n5C[C@@H]5CCO5)cc4F)n3)s2)cn1', 9.85),
  ('O=C(O)c1ccc2nc(Cc3cc(F)c(-c4cccc(OCc5cc6n(n5)CC(F)(F)C6)n4)cc3F)n(C[C@@H]3CCO3)c2c1', 9.60),
  ('O=C(O)c1ccc2nc(Cc3cc(F)c(-c4cccc(OCc5ncc(Br)s5)n4)cc3F)n(C[C@@H]3CCO3)c2c1', 9.77);

----------
# maps each entry to its pEC50
# System Under Test: GLP-1R (Homo sapiens, UniProt P43220)
# Protocol Text: GLP-1R activation cAMP assay (Assay 1 or Assay 2)
# Cond: cAMP increase in CHO cells stably expressing GLP-1R; compounds run on one of the two cAMP assays
# Description: GLP-1R ACTIVATION—cAMP Assay 1 GLP-1R activation by compounds of the present disclosure was quantified by measuring cAMP increase in CHO cells stably expressing GLP-1R (MultiSpan product #C1267-1a). […] The tested GLP-1 compound was added to the cells in a 10-point dose response followed by a 30-minute incubation at 37° C., 5% CO2. cAMP concentration increase was then detected using Cisbio's cAMP Gs Dynamic Kit (product #62AM4PEC) according to the manufacturer's protocol. […]
pEC50: −log10 of the molar value.
Readout Name: pEC50

INSERT INTO assay_data (line_notation, readout_name, recorded_value) VALUES
  ('O=C(O)c1ccc2nc(Cc3cc(F)c(-c4cccc(OCc5ccc(-c6cn(C7CCOCC7)nn6)cc5F)n4)cc3F)n(C[C@@H]3CCO3)c2c1', 'pEC50', 9.10),
  ('NC(=O)c1ncc(COc2cccc(-c3cc(F)c(Cc4nc5ccc(C(=O)O)cc5n4C[C@@H]4CCO4)cc3F)n2)s1', 'pEC50', 8.70),
  ('NC(=O)c1cc(F)c(COc2nc(-c3cc(F)c(Cc4nc5c(F)cc(C(=O)O)cc5n4C[C@@H]4CCO4)cc3F)ccc2F)cn1', 'pEC50', 10.70),
  ('CCOc1nnc(COc2cccc(-c3cc(F)c(Cc4nc5ccc(C(=O)O)cc5n4[C@@H]4COCC4(C)C)c(F)c3F)n2)s1', 'pEC50', 9.88),
  ('CC(F)(F)c1cnc(COc2nc(-c3cc(F)c(Cc4nc5c(F)cc(C(=O)O)cc5n4C[C@@H]4CCO4)c(F)c3F)ccc2F)s1', 'pEC50', 10.17),
  ('COCCn1c(Cc2cc(F)c(-c3cccc(OCc4ccc(C#CC5CN(C)C5)cc4F)n3)cc2F)nc2ccc(C(=O)O)cc21', 'pEC50', 8.23);

----------
# maps each entry to its EC50
# System Under Test: GLP-1R (Homo sapiens, UniProt P43220)
# Protocol Text: GLP-1R activation cAMP assay (Assay 1 or Assay 2)
# Cond: cAMP increase in CHO cells stably expressing GLP-1R; compounds run on one of the two cAMP assays
Readout Name: EC50 (nM)

INSERT INTO results (molecule, readout_name, recorded_value) VALUES
  ('O=C(O)c1ccc2nc(Cc3cc(F)c(-c4cccc(OCc5cn6ccccc6n5)n4)cc3F)n(C[C@@H]3CCO3)c2c1 [Example 30]', 'EC50', 1.99),
  ('COCCn1c(Cc2cc(F)c(-c3cccc(OCc4ccc(C#CC5COC5)cc4F)n3)cc2F)nc2ccc(C(=O)O)cc21 [Example 231]', 'EC50', 1.51),
  ('O=C(O)c1ccc2nc(Cc3cc(F)c(-c4cccc(OCc5ccc(-c6cn([C@@H]7CCOC7)nn6)cc5F)n4)cc3F)n(C[C@@H]3CCO3)c2c1 [Example 213]', 'EC50', 0.48),
  ('O=C(O)c1ccc2nc(Cc3cc(F)c(-c4cccc(OCc5ccc(C#Cc6cnc(Cl)nc6)cc5)n4)cc3F)n(C[C@@H]3CCO3)c2c1 [Example 403]', 'EC50', 0.096),
  ('O=C(O)c1ccc2nc(Cc3cc(F)c(-c4cccc(OCc5ncc(C#CC6CC(F)(F)C6)s5)n4)cc3F)n(C[C@@H]3CCO3)c2c1 [Example 336]', 'EC50', 0.261),
  ('O=C(O)c1ccc2nc(Cc3cc(F)c(-c4cccc(OCc5ccc(C#Cc6cnn(C(F)F)c6)cc5F)n4)cc3F)n(C[C@@H]3CCO3)c2c1 [Example 287]', 'EC50', 0.185);

----------
# System Under Test: GLP-1R (Homo sapiens)
# Protocol Text: GLP-1R activation cAMP assay (Assay 1 or Assay 2)
# Cond: cAMP increase in CHO cells stably expressing GLP-1R; compounds run on one of the two cAMP assays
Values of EC50 strictly less than 0.4 nM map to true, and values of at least 0.4 nM map to false.

INSERT INTO measurements (line_notation, group) VALUES
  ('O=C(O)c1cc(F)c2nc(Cc3cc(F)c(-c4ccc(F)c(OCc5ncc(C(F)F)s5)n4)cc3F)n(C[C@@H]3CCO3)c2c1', 'true'),
  ('CCOc1nnc(COc2nc(-c3cc(F)c(Cc4nc5ccc(C(=O)O)cc5n4[C@@H]4COCC4(C)C)cc3F)ccc2F)s1', 'true'),
  ('Cc1cc(Cc2nc3ccc(C(=O)O)cc3n2[C@@H]2COCC2(C)C)c(Cl)cc1-c1ccc(F)c(OCc2ncc(C(C)(F)F)s2)n1', 'false'),
  ('CNC(=O)c1cc(Cl)c(COc2cccc(-c3ccc(Cc4nc5ccc(C(=O)O)cc5n4CC4(CF)CC4)c(F)c3)n2)cn1', 'true'),
  ('O=C(O)c1ccc2nc(Cc3cc(F)c(-c4cccc(OCc5nnc(C#CC6CC(F)(F)C6)s5)n4)cc3F)n(C[C@@H]3CCO3)c2c1', 'false');

----------
# maps each entry to its pEC50
# System Under Test: UniProt P43220
# Protocol Text: GLP-1R activation cAMP assay (Assay 1 or Assay 2)
# Cond: cAMP increase in CHO cells stably expressing GLP-1R; compounds run on one of the two cAMP assays
# Experimental: GLP-1R ACTIVATION—cAMP Assay 1 GLP-1R activation by compounds of the present disclosure was quantified by measuring cAMP increase in CHO cells stably expressing GLP-1R (MultiSpan product #C1267-1a). […] The tested GLP-1 compound was added to the cells in a 10-point dose response followed by a 30-minute incubation at 37° C., 5% CO2. cAMP concentration increase was then detected using Cisbio's cAMP Gs Dynamic Kit (product #62AM4PEC) according to the manufacturer's protocol. […]
pEC50: −log10 of the molar value.
Readout Name: pEC50

INSERT INTO assay_data (line_notation, recorded_value) VALUES
  ('O=C(O)c1ccc2nc(Cc3cc(F)c(-c4cccc(OCc5cc(C(F)(F)F)sn5)n4)cc3F)n(C[C@@H]3CCO3)c2c1', 9.27),
  ('CNC(=O)c1cc(Cl)c(COc2cccc(-c3cc(F)c(Cc4nc5c(F)cc(C(=O)O)cc5n4C[C@@H](C)OC)cc3F)n2)cn1', 9.11),
  ('O=C(O)c1ccc2nc(Cc3cc(F)c(-c4cccc(OCc5ncc(C#CC6CCC6)s5)n4)cc3F)n(C[C@@H]3CCO3)c2c1', 9.69),
  ('NC(=O)c1cnc(COc2cccc(-c3cc(F)c(Cc4nc5ccc(C(=O)O)cc5n4C[C@@H]4CCO4)cc3F)n2)cn1', 9.85),
  ('O=C(O)c1ccc2nc(Cc3cc(F)c(-c4cccc(OCc5ncc(-c6ccc(Cl)cc6)s5)n4)cc3F)n(C[C@@H]3CCO3)c2c1', 9.25),
  ('O=C(O)c1ccc2nc(Cc3cc(F)c(-c4cccc(OCc5cnc(C(=O)NCC(F)F)cc5Cl)n4)cc3F)n(C[C@@H]3CCO3)c2c1', 9.49),
  ('CNC(=O)c1cc(Cl)c(COc2cccc(-c3cc(F)c(Cc4nc5c(F)cc(C(=O)O)cc5n4C[C@@H]4CCO4)cc3C)n2)cn1', 9.21),
  ('N#Cc1ccc(C#Cc2cnc(COc3cccc(-c4cc(F)c(Cc5nc6ccc(C(=O)O)cc6n5C[C@@H]5CCO5)cc4F)n3)nc2)cc1', 9.16),
  ('O=C(O)c1ccc2nc(Cc3c(F)cc(-c4ccc(F)c(OCc5ncc(C(F)(F)F)s5)n4)c(F)c3F)n(C[C@@H]3CCO3)c2c1', 9.77),
  ('N#Cc1nc(COc2cccc(-c3cc(F)c(Cc4nc5ccc(C(=O)O)cc5n4C[C@@H]4CCO4)cc3F)n2)cs1', 8.08),
  ('N#CC1(NC(=O)c2cc(Cl)c(COc3cccc(-c4cc(F)c(Cc5nc6ccc(C(=O)O)cc6n5C[C@@H]5CCO5)cc4F)n3)cn2)CCC1', 9.52),
  ('COc1ncc(C#Cc2ccc(COc3cccc(-c4cc(F)c(Cc5nc6ccc(C(=O)O)cc6n5C[C@@H]5CCO5)cc4F)n3)c(F)n2)s1', 9.51),
  ('COCc1nnc(COc2cccc(-c3cc(F)c(Cc4nc5ccc(C(=O)O)cc5n4C[C@@H]4CCO4)cc3F)n2)s1', 9.33),
  ('O=C(O)c1ccc2nc(Cc3cc(F)c(-c4cccc(OCc5ncc(C#Cc6cn[nH]c6)cc5F)n4)cc3F)n(C[C@@H]3CCO3)c2c1', 10.38),
  ('COc1cc(C(N)=O)ncc1COc1cccc(-c2cc(F)c(Cc3nc4ccc(C(=O)O)cc4n3C[C@@H]3CCO3)cc2F)n1', 10.70),
  ('Cn1ncc(C#Cc2ccc(COc3cccc(-c4cc(F)c(Cc5nc6ccc(C(=O)O)cc6n5C[C@@H]5CCO5)cc4F)n3)c(F)c2)c1Cl', 9.21),
  ('Cn1nc(COc2cccc(-c3cc(F)c(Cc4nc5ccc(C(=O)O)cc5n4C[C@@H]4CCO4)cc3F)n2)c2c1CCC2', 8.96),
  ('O=C(O)c1ccc2nc(Cc3cc(F)c(-c4cccc(OCc5ccc(-c6cn(C7CC7)nn6)cc5F)n4)cc3F)n(C[C@@H]3CCO3)c2c1', 10.10),
  ('Cn1cc(C#Cc2cc(F)c(COc3cccc(-c4cc(F)c(Cc5nc6ccc(C(=O)O)cc6n5C[C@@H]5CCO5)cc4F)n3)cn2)cn1', 9.00),
  ('O=C(O)c1ccc2nc(Cc3cc(F)c(-c4cccc(OCc5ncc(C#Cc6cscn6)cc5F)n4)cc3F)n(C[C@@H]3CCO3)c2c1', 9.30),
  ('COCCn1c(Cc2cc(F)c(-c3cccc(OCc4ccc(C#Cc5cncn5C)cc4F)n3)cc2F)nc2ccc(C(=O)O)cc21', 8.92),
  ('O=C(O)c1cc(F)c2nc(Cc3c(F)cc(-c4cccc(OCc5ncc(C(F)(F)F)s5)n4)c(F)c3F)n(C[C@@H]3CCO3)c2c1', 10.09),
  ('CCOC(=O)N1Cc2ccc(COc3cccc(-c4cc(F)c(Cc5nc6ccc(C(=O)O)cc6n5C[C@@H]5CCO5)cc4F)n3)cc2C1', 9.37),
  ('N#Cc1sc(COc2cccc(-c3cc(F)c(Cc4nc5ccc(C(=O)O)cc5n4C[C@@H]4CCO4)cc3F)n2)cc1F', 9.60),
  ('O=C(O)c1cc(F)c2nc(Cc3cc(F)c(-c4cccc(OCc5ncc(C#CC6(CF)CC6)cc5Cl)n4)cc3F)n(C[C@@H]3CCO3)c2c1', 10.11);
